Measured NanoBRET Fold Response of individual entries
Molecular target: C5AR1 (Homo sapiens)
Construct: purchased Promega (in-house HiBiT-GPCR construct library, NanoBRET)
Sequence (P21730 whole entry): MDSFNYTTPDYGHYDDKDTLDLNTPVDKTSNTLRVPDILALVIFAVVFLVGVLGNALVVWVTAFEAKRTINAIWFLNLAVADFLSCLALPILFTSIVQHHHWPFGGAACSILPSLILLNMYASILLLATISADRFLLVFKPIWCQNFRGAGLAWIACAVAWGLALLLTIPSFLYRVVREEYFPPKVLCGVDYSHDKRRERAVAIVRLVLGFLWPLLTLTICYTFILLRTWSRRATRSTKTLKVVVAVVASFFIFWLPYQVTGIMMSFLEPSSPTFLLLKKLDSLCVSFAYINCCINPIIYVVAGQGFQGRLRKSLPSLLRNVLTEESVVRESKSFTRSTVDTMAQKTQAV
Assay: NanoBRET screen HiBiT-C5AR1 in HEK293
Format: binding
Conditions: C5AR1; tracer 0.1μM
Method: Each tracer candidate was screened across the entire library of HiBiT-GPCR constructs using NanoBRET as the detection modality. As depicted in Figure 4A, the specificity of interactions was evaluated through decrease in BRET due to competitive displacement of a bound tracer by excess parental compound. Each tracer was analyzed for binding to each HiBiT-GPCR fusion in the absence and in the presence of competing parental compound. […]

Guide cases for NanoBRET Fold Response, answers given:
INPUT: // query NanoBRET Fold Response value for entry CCCn1c(=O)c2[nH]c(-c3ccc(OCC(=O)NCCNC(=O)CCOCCNC(=O)c4ccc(CNC(=O)CCc5ccc6n5[B-](F)(F)[N+]5=C(c7ccc[nH]7)C=CC5=C6)cc4)cc3)nc2n(CCC)c1=O
OUTPUT: 0.95

INPUT: Can you share its NanoBRET Fold Response? I mean this compound: Cc1cc2c(s1)Nc1ccccc1N=C2N1CCN(CCCNC(=O)CCOCCOCCOCCOCCNC(=O)CCc2ccc3n2[B-](F)(F)[N+]2=C(c4ccc[nH]4)C=CC2=C3)CC1
OUTPUT: 1.06

Proceeding to the next compound to report its NanoBRET Fold Response.
INPUT: Requested field: NanoBRET Fold Response. Item: CC(C)N(CC[C@H](c1ccccc1)c1cc(CCNC(=O)c2ccc(CNC(=O)CCc3ccc4n3[B-](F)(F)[N+]3=C(c5ccc[nH]5)C=CC3=C4)cc2)ccc1O)C(C)C
OUTPUT: 1.01

---

Biological target: MCHR1 (Homo sapiens, UniProt Q99705)
Construct: purchased Promega (in-house HiBiT-GPCR construct library, NanoBRET)
Sequence (Q99705 whole entry): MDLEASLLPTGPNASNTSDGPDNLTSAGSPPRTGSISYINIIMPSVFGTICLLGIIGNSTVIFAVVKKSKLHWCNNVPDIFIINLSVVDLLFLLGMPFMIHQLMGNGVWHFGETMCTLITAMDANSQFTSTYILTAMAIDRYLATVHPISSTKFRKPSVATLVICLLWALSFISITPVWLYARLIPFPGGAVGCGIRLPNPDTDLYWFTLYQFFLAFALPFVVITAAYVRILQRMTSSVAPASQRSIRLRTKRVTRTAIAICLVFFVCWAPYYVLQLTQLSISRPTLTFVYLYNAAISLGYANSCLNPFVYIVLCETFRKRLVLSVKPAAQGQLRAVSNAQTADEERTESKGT
Experiment: NanoBRET screen HiBiT-MCHR1 in HEK293
Type: binding
Details: MCHR1; tracer 1μM
Endpoint Label: NanoBRET Fold Response
Reply with just the number.

# annotated cases, reported NanoBRET Fold Response shown
INPUT: Quick one: NanoBRET Fold Response for COc1ccccc1N1CCN(CCCCN2C(=O)c3ccc(CNC(=O)CCOCCNC(=O)c4ccc(CNC(=O)CCc5ccc6n5[B-](F)(F)[N+]5=C(c7ccc[nH]7)C=CC5=C6)cc4)cc3C2=O)CC1 ?
OUTPUT: 0.86

INPUT: Endpoint output: NanoBRET Fold Response of CCCn1c(=O)c2[nH]c(-c3ccc(OCC(=O)NCCNC(=O)CCOCCNC(=O)c4ccc(CNC(=O)CCc5ccc6n5[B-](F)(F)[N+]5=C(c7ccc[nH]7)C=CC5=C6)cc4)cc3)nc2n(CCC)c1=O . Value?
OUTPUT: 1.03

Please turn your attention to the following entry.
INPUT: Which NanoBRET Fold Response value is on record for CC(C)N(CC[C@H](c1ccccc1)c1cc(CCNC(=O)CCOCCOCCOCCOCCNC(=O)CCc2ccc3n2[B-](F)(F)[N+]2=C(c4ccc[nH]4)C=CC2=C3)ccc1O)C(C)C ?
OUTPUT: 0.95

---

Target: NPBWR1 (Homo sapiens)
Construct: purchased Promega (in-house HiBiT-GPCR construct library, NanoBRET)
Sequence (P48145 whole entry): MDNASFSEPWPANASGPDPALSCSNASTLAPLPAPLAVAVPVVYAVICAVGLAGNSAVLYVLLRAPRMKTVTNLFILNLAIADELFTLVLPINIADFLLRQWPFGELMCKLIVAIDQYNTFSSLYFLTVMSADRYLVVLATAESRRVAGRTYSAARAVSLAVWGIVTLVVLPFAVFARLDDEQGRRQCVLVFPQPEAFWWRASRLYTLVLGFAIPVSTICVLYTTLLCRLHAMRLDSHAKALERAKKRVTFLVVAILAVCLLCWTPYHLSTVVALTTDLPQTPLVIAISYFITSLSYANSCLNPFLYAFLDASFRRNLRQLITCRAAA
Assay: NanoBRET screen HiBiT-NPBWR1 in HEK293
Assay type: binding
Conditions: NPBWR1; tracer 0.1μM
Experimental: Each tracer candidate was screened across the entire library of HiBiT-GPCR constructs using NanoBRET as the detection modality. As depicted in Figure 4A, the specificity of interactions was evaluated through decrease in BRET due to competitive displacement of a bound tracer by excess parental compound. Each tracer was analyzed for binding to each HiBiT-GPCR fusion in the absence and in the presence of competing parental compound. […]
Mark 1 for NanoBRET Fold Response under 1, 0 if at or over.

INPUT: I'd appreciate it if you could check whether O=C(CCc1ccc2n1[B-](F)(F)[N+]1=C(c3ccc[nH]3)C=CC1=C2)NCc1ccc(C(=O)NCCOCCC(=O)N[C@@H]2CC[C@@]3(O)[C@H]4Cc5ccc(O)c6c5[C@@]3(CCN4CC3CC3)[C@H]2O6)cc1 [Naltrexone-3-NB590] has NanoBRET Fold Response smaller than 1.
OUTPUT: 1

***
INPUT: Given N#CN=C(NCCCOc1cccc(CN2CCCCC2)c1)NCCNC(=O)CCOCCOCCOCCOCCNC(=O)CCc1ccc2n1[B-](F)(F)[N+]1=C(c3ccc[nH]3)C=CC1=C2 [Aminopotentidine-2-NB590] , is recorded NanoBRET Fold Response strictly lower than 1?
OUTPUT: 1

INPUT: Please state whether NanoBRET Fold Response is below 1 for COc1ccccc1N1CCN(CCCCN2C(=O)c3ccc(CNC(=O)CCOCCNC(=O)c4ccc(CNC(=O)CCc5ccc6n5[B-](F)(F)[N+]5=C(c7ccc[nH]7)C=CC5=C6)cc4)cc3C2=O)CC1 [NAN-190-3-NB590]
OUTPUT: 1

INPUT: Consider the compound CCCn1c(=O)c2[nH]c(-c3ccc(OCC(=O)NCCNC(=O)CCOCCNC(=O)c4ccc(CNC(=O)CCc5ccc6n5[B-](F)(F)[N+]5=C(c7ccc[nH]7)C=CC5=C6)cc4)cc3)nc2n(CCC)c1=O [XAC-3-NB590] . Is its NanoBRET Fold Response strictly less than 1?
OUTPUT: 0

INPUT: I wonder whether Cc1nc2n(c(=O)c1CCN1CCC(c3noc4cc(F)ccc34)CC1)CCCC2OC(=O)NCCOCCOCCOCCOCCNC(=O)CCc1ccc2n1[B-](F)(F)[N+]1=C(c3ccc[nH]3)C=CC1=C2 (centres unmarked) [Risperidone-2-NB590] has NanoBRET Fold Response below 1. Can you tell?
OUTPUT: 0

INPUT: Regarding CC(C)N(CC[C@H](c1ccccc1)c1cc(CCNC(=O)CCOCCOCCOCCOCCNC(=O)CCc2ccc3n2[B-](F)(F)[N+]2=C(c4ccc[nH]4)C=CC2=C3)ccc1O)C(C)C [Tolterodine-2-NB590] , kindly confirm whether its NanoBRET Fold Response is beneath 1.
OUTPUT: 0
